Target: GDP-loaded KRAS G12D (Homo sapiens (Human), UniProt P01116, G12D)
Sequence (P01116-2 other isoform, or with tags, fused parts or gaps G12D): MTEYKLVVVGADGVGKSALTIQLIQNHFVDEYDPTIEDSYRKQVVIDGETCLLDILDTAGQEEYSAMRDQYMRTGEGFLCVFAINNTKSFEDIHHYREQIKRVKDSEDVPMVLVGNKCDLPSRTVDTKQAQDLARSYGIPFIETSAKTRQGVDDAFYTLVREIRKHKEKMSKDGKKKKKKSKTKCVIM
Experiment: KRAS G12D (GDP) biochemical assay (TR-FRET probe displacement)
Details: 2 hours
PARAMETER: IC50

C#Cc1c(F)ccc2cccc(-c3nc4c5c(nc(OC[C@@]67CCCN6C[C@H](F)C7)nc5c3F)N3C[C@H]5CC[C@H](N5)[C@H]3CCO4)c12 :: 0.5 nM
C#Cc1c(F)ccc2cccc(-c3nc4c5c(nc(OC[C@@]67CCCN6C[C@H](F)C7)nc5c3F)N3C[C@H]5CC[C@H](N5)[C@H]3C[C@@H]4CC)c12 :: 0.5 nM

**Q:** What value of IC50 has been recorded for this entry: C#Cc1c(F)ccc2cc(O)cc(-c3nc4c5c(nc(OC[C@@]67CCCN6[C@H](COC(C(F)(F)F)(C(F)(F)F)C(F)(F)F)CC7)nc5c3F)N3C[C@H]5CC[C@H](N5)[C@H]3CO4)c12
**A:** 0.5 nM

**Q:** Requested read-out: IC50. Entry: C#Cc1c(F)ccc2cccc(-c3nc4c5c(nc(OC[C@@]67CCCN6[C@H](COC(C)(C(F)(F)F)C(F)(F)F)CC7)nc5c3F)N3C[C@H]5CC[C@H](N5)[C@H]3CC4)c12
**A:** 0.3 nM

**Q:** Quick one: IC50 of C#Cc1c(F)ccc2cc(O)cc(-c3nc4c5c(nc(OCC6(CN7CCC[C@@H](F)C7)CC6)nc5c3F)N3C[C@H]5CC[C@H](N5)[C@H]3CC4)c12 ?
**A:** 0.08 nM

**Q:** Query (compound): Oc1cc(-c2nc3c4c(nc(OC[C@@]56CCCN5C[C@H](F)C6)nc4c2F)N2C[C@H]4CC[C@H](N4)[C@H]2CO3)c2c(F)c(F)c(F)cc2c1 ; field requested: IC50
**A:** 1 nM

**Q:** // lookup IC50 for C#Cc1c(F)ccc2cc(O)cc(-c3nc4c5c(nc(OC[C@@]67CCCN6[C@H](COc6ccnc(C(F)(F)F)n6)CC7)nc5c3F)N3C[C@H]5CC[C@H](N5)[C@H]3CC4)c12
**A:** 0.1 nM
